# targetOrTestSystem: RAC-beta serine/threonine-protein kinase (Homo sapiens, UniProt P31751)
# Sequence (P31751 whole entry): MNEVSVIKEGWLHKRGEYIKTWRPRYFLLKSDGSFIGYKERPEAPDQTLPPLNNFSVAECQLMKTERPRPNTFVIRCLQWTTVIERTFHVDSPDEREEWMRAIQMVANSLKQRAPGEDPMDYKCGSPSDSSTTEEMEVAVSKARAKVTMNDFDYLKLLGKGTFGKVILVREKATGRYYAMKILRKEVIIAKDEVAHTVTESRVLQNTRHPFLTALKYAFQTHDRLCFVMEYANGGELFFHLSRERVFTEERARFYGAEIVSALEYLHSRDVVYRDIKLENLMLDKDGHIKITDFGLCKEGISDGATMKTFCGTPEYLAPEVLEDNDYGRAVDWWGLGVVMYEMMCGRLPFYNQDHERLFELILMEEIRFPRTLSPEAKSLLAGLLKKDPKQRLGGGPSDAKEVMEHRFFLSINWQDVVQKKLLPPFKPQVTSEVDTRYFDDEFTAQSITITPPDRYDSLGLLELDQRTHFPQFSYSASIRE
# experimentalDetails: Inhibition of AKT2 (unknown origin) at 30 uM by microfluidic mobility shift assay relative to control
readoutName: inhibition

Looking for the measured inhibition of O=S(=O)(c1cccc2cnccc12)N1CCC2(CCC(O)CN2)CC1 (racemic) , can you help? 14%

Looking for the measured inhibition of `c1nc(N2CCC3(CCNC3)CC2)c2nc[nH]c2n1` , can you help? 70%

Looking for the measured inhibition of `c1nc(N2CCC3(CCCCO3)CC2)c2nc[nH]c2n1` , can you help? 10%

Looking for the measured inhibition of O=S(=O)(c1cccc2cnccc12)N1CCC2(CC1)CC(O)CCN2 (racemic) , can you help? 13%

Looking for the measured inhibition of OC1CCNC2(CCN(c3ncnc4[nH]cnc34)CC2)C1 (racemic) , can you help? 59%

Further cases:
Looking for the measured inhibition of O=C(C1CCC2(CCN(c3ncnc4[nH]cnc34)CC2)NC1)N1CCOCC1 (racemic) , can you help? 25%

Looking for the measured inhibition of `c1nc(N2CCCC3(CCNCC3)C2)c2nc[nH]c2n1` , can you help? 26%

Looking for the measured inhibition of OC1CCC2(CCN(c3ncnc4[nH]cnc34)CC2)NC1 (racemic) , can you help? 59%

Looking for the measured inhibition of c1nc(N2CCCC3(CCCNC3)C2)c2nc[nH]c2n1 (stereo unspecified) , can you help? 37%

Looking for the measured inhibition of `O=S(=O)(c1cccc2cnccc12)N1CCC2(CCNC2)CC1` , can you help? 17%

Looking for the measured inhibition of CN(C)C(=O)C1CCC2(CCN(c3ncnc4[nH]cnc34)CC2)NC1 (racemic) , can you help? 27%

---

# targetOrTestSystem: Protein kinase C (PKC) (Homo sapiens) (UniProt O94806+P41743+P17252+P05129+Q05655+P05771+Q05513+Q02156+P24723+Q15139+Q04759)
# experimentalDetails: Inhibition of PKC (unknown origin) at 30 uM by microfluidic mobility shift assay relative to control
Recorded measurements of inhibition, one per entry
Kindly answer with a numeric value in %, unit omitted.

Recorded inhibition, per entry:
Looking for the measured inhibition of `O=S(=O)(c1cccc2cnccc12)N1CCC2(CCCNC2)CC1` , can you help? 9

Looking for the measured inhibition of `O=S(=O)(c1cccc2cnccc12)N1CCCC2(CCNCC2)C1` , can you help? 4

Looking for the measured inhibition of `O=S(=O)(NCCNC/C=C/c1ccc(Br)cc1)c1cccc2cnccc12` , can you help? 64

Looking for the measured inhibition of O=S(=O)(c1cccc2cnccc12)N1CCC2(CCC(O)CN2)CC1 (racemic) , can you help? 0

Looking for the measured inhibition of `c1nc(N2CCC3(CCCCN3)CC2)c2nc[nH]c2n1` , can you help? 0

Looking for the measured inhibition of O=S(=O)(c1cccc2cnccc12)N1CCC2(CC1)CC(O)CCN2 (racemic) , can you help? 0

Further cases:
Looking for the measured inhibition of O=C(O)C1CCC2(CCN(c3ncnc4[nH]cnc34)CC2)NC1 (racemic) , can you help? 0

Looking for the measured inhibition of `c1nc(N2CCC3(CCCCO3)CC2)c2nc[nH]c2n1` , can you help? 0

Looking for the measured inhibition of `NC1(Cc2ccccc2)CCN(c2ncnc3[nH]cnc23)CC1` , can you help? 0

Looking for the measured inhibition of CNC(=O)C1CCC2(CCN(c3ncnc4[nH]cnc34)CC2)NC1 (racemic) , can you help? 0

Looking for the measured inhibition of OC1CCNC2(CCN(c3ncnc4[nH]cnc34)CC2)C1 (racemic) , can you help? 0
